System: Neutrophil collagenase (Homo sapiens, UniProt P22894)
Sequence (P22894 whole entry): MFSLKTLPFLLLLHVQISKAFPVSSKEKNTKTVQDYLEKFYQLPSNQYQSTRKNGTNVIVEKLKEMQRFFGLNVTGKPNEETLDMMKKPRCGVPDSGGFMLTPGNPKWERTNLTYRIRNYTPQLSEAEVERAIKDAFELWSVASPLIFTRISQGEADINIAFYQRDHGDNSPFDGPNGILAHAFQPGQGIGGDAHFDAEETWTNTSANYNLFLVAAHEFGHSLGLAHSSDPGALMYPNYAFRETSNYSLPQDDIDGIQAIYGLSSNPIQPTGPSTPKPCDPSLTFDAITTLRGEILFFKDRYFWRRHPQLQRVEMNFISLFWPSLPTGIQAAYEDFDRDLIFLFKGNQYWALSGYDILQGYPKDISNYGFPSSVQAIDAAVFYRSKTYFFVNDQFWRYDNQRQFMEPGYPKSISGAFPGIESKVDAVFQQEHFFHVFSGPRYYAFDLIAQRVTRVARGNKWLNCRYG
Procedure summary: Inhibition of human Matrix metalloprotease-8
Quantity: Ki (nM)
Use nM as the unit, but write only the number.

Look over these answered cases.
- Query smiles: "CCCCCCNC(=O)[C@H](Cc1c[nH]c2ccccc12)NC(=O)[C@@H](CC(=O)NO)CC(C)C"
  Ki, nM: 0.5
- Query smiles: "CCCCCCNC(=O)[C@H](Cc1c[nH]c2ccccc12)NC(=O)[C@H](CC(C)C)CP(=O)(O)CSc1ccc2ccccc2n1"
  Ki, nM: 102
- Query smiles: "CC(C)C[C@H](CP(=O)(O)CSc1ccc2ccccc2n1)C(=O)N[C@H]1Cc2cn(c3ccccc23)CCCCCCNC1=O"
  Ki, nM: 4

Q: Param item = CCCCCCNC(=O)[C@H](Cc1c[nH]c2ccccc12)NC(=O)[C@@H](CC(=O)O)CC(C)C ; retrieve measured Ki.
Result: 163
